Let's look at some compounds and their measured pIC50.
- experimental-target: Cannabinoid receptor 1 (Homo sapiens, UniProt P21554)
- Sequence (P21554 whole entry): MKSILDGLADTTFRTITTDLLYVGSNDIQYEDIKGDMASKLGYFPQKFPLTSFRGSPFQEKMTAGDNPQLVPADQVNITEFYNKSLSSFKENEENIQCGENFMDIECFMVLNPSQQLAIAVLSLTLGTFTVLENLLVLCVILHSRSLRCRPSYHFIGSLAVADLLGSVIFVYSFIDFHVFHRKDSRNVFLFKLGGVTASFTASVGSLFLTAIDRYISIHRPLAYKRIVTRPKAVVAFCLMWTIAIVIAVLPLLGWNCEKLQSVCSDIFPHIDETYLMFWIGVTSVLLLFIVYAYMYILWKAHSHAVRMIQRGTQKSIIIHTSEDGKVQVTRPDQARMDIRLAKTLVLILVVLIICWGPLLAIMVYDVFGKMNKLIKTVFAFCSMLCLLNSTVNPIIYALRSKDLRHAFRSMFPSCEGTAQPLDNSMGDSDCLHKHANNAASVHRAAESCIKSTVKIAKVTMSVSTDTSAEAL
- experiment: Antagonist activity at human CB1 receptor expressed in CHOK1 cells by luciferase assay
pIC50: −log10 of the molar value.
experimental-endpoint: pIC50

>  <compound>
O=C(NC1CCCCC1)N1CCN(C(c2ccc(Cl)cc2)c2ccccc2C(F)(F)F)CC1 (stereo unspecified)

>  <reported>
6.73

$$$$
>  <compound>
O=C(NCC1CCCCC1)N1CCN(C(c2ccc(Br)cc2)c2ccccc2Cl)CC1 (stereo unspecified)

>  <reported>
6.84

$$$$
>  <compound>
Cc1ccccc1C(c1ccc(Cl)cc1)N1CCN(C(=O)NCC2CCCCC2)CC1 (stereo unspecified)

>  <reported>
6.47

$$$$
>  <compound>
O=C(NCC1CCCCC1)N1CCN(C(c2ccc(Cl)cc2)c2ccccc2Cl)CC1 (stereo unspecified)

>  <reported>
6.56

$$$$
>  <compound>
CC(C)(C)NC(=O)N1CCN(C(c2ccc(Br)cc2)c2ccccc2Cl)CC1 (stereo unspecified)

>  <reported>
6.54

$$$$
>  <compound>
O=C(NC1CCCCC1)N1CCN(C(c2ccc(Cl)cc2)c2ccc(Cl)cc2Cl)CC1 (stereo unspecified)

>  <reported>
6.44

$$$$
>  <compound>
Cc1ccccc1C(c1ccc(Cl)cc1)N1CCN(C(=O)NC(C)(C)C)CC1 (stereo unspecified)

>  <reported>
6.48

$$$$
>  <compound>
O=C(NC1CCCCCC1)N1CCN(C(c2ccc(Cl)cc2)c2ccccc2Cl)CC1 (stereo unspecified)

>  <reported>
6.65

$$$$
>  <compound>
CC(C)(C)NC(=O)N1CCN(C(c2ccc(Cl)cc2)c2cccc(Cl)c2Cl)CC1 (stereo unspecified)

>  <reported>
6.50

$$$$
>  <compound>
Cc1ccccc1C(c1ccc(Cl)cc1)N1CCN(C(=O)NC2CCCCCC2)CC1 (stereo unspecified)

>  <reported>
6.79

$$$$
>  <compound>
O=C(NCC1CCCCC1)N1CCN(C(c2ccc(Cl)cc2)c2ccc(Cl)cc2Cl)CC1 (stereo unspecified)

>  <reported>
5.98

$$$$

----------
- experimental-target: Cannabinoid receptor 1 (Homo sapiens, UniProt P21554)
- experiment: Antagonist activity at human CB1 receptor expressed in CHOK1 cells by luciferase assay

>  <molecule>
O=C(NC1CCCCC1)N1CCN(C(c2ccc(Cl)cc2)c2ccccc2Cl)CC1 (stereo not given)

>  <IC50>
128 nM

$$$$
>  <molecule>
O=C(NC1CCCCCC1)N1CCN(C(c2ccc(Br)cc2)c2ccccc2Cl)CC1 (stereo not given)

>  <IC50>
49.4 nM

$$$$
>  <molecule>
O=C(NC1CCCCCC1)N1CCN(C(c2ccc(Cl)cc2)c2cccc(Cl)c2Cl)CC1 (stereo not given)

>  <IC50>
424 nM

$$$$
>  <molecule>
O=C(NC1CCCCCC1)N1CCN(C(c2ccc(Cl)cc2)c2ccc(Cl)cc2Cl)CC1 (stereo not given)

>  <IC50>
729 nM

$$$$
>  <molecule>
O=C(NCC1CCCCC1)N1CCN(C(c2ccc(Cl)cc2)c2ccccc2C(F)(F)F)CC1 (stereo not given)

>  <IC50>
798 nM

$$$$
>  <molecule>
O=C(NC1CCCCC1)N1CCN(C(c2ccc(Cl)cc2)c2cccc(Cl)c2Cl)CC1 (stereo not given)

>  <IC50>
441 nM

$$$$
>  <molecule>
Cc1ccccc1C(c1ccc(Cl)cc1)N1CCN(C(=O)NC2CCCCC2)CC1 (stereo not given)

>  <IC50>
195 nM

$$$$
>  <molecule>
O=C(NC1CCCCCC1)N1CCN(C(c2ccc(Cl)cc2)c2ccccc2C(F)(F)F)CC1 (stereo not given)

>  <IC50>
204 nM

$$$$
>  <molecule>
O=C(NC1CCCCC1)N1CCN(C(c2ccc(Br)cc2)c2ccccc2Cl)CC1 (stereo not given)

>  <IC50>
62.8 nM

$$$$
>  <molecule>
CC(C)(C)NC(=O)N1CCN(C(c2ccc(Cl)cc2)c2ccccc2Cl)CC1 (stereo not given)

>  <IC50>
443 nM

$$$$
